Biological target: T1, PSMA Fab
T1 construct: also called Anti-PSMA Fab; 006 PSMA Fab
Test: clonal phage ELISA; biotinylated PSMA Fab on neutravidin plate, anti-M13 HRP detection
Where no end group is shown, it is not given here.
Measured Phage binding ELISA signal, Anti-PSMA Fab values are reported for all entries that follow.
measurement kind: Phage binding ELISA signal, Anti-PSMA Fab

* WDRLCIPAWMCSGF (cysteine pairing not given here; also: fused to pIII of display bacteriophage, linker and sequence not given here, Clonal phage of the Peptide-180 library; not shown: pIII filament protein of the display bacteriophage) [Phage-2861] | 2.43
* VQRMCEPSWMCFGF (cysteine pairing not given here; also: fused to pIII of display bacteriophage, linker and sequence not given here, Clonal phage of the Peptide-180 library; not shown: pIII filament protein of the display bacteriophage) [Phage-2856] | 2.44
* MLPLCVPAWMCSGF (cysteine pairing not given here; also: fused to pIII of display bacteriophage, linker and sequence not given here, Clonal phage of the Peptide-180 library; not shown: pIII filament protein of the display bacteriophage) [Phage-2853] | 2.44
* FNVMCRPAWMCDFL (cysteine pairing not given here; also: fused to pIII of display bacteriophage, linker and sequence not given here, Clonal phage of the Peptide-180 library; not shown: pIII filament protein of the display bacteriophage) [Phage-2863] | 2.42
* WEMKCIPEWMCRGF (cysteine pairing not given here; also: fused to pIII of display bacteriophage, linker and sequence not given here, Clonal phage of the Peptide-180 library; not shown: pIII filament protein of the display bacteriophage) [Phage-2855] | 2.44
* LERACVPSWMCTGF (cysteine pairing not given here; also: fused to pIII of display bacteriophage, linker and sequence not given here, Clonal phage of the Peptide-180 library; not shown: pIII filament protein of the display bacteriophage) [Phage-2857] | 2.44
* VMPLCKPAWMCGGF (cysteine pairing not given here; also: fused to pIII of display bacteriophage, linker and sequence not given here, Clonal phage of the Peptide-180 library; not shown: pIII filament protein of the display bacteriophage) [Phage-2852] | 2.46
* VHIMCKPAWMCLGF (cysteine pairing not given here; also: fused to pIII of display bacteriophage, linker and sequence not given here, Clonal phage of the Peptide-180 library; the cell for position 10 (c11) is missing in the printed row; not shown: pIII filament protein of the display bacteriophage) [Phage-2854] | 2.44
* TQAMCKPAWMCQGF (cysteine pairing not given here; also: fused to pIII of display bacteriophage, linker and sequence not given here, Clonal phage of the Peptide-180 library; not shown: pIII filament protein of the display bacteriophage) [Phage-2858] | 2.44
* WEFVCKPEWMCTGF (cysteine pairing not given here; also: fused to phage pIII, linker not given here, Clonal phage of the Peptide-180 library; not shown: pIII filament protein of the display bacteriophage) [Phage-2859] | 2.43
* DMRLCVPEWMCLGL (cysteine pairing not given here; also: displayed on phage as fusion to pIII, linker and sequence not given here, Clonal phage of the Peptide-180 library; not shown: pIII filament protein of the display bacteriophage) [Phage-2851] | 2.46
* TGAYCVPQWMCSGF (cysteine pairing not given here; also: fused to phage pIII, linker not given here, Clonal phage of the Peptide-180 library; not shown: pIII filament protein of the display bacteriophage) [Phage-2862] | 2.43
* EWILCKPAWMCDGL (cysteine pairing not given here; also: fused to pIII of display bacteriophage, linker and sequence not given here, Clonal phage of the Peptide-180 library; not shown: pIII filament protein of the display bacteriophage) [Phage-2860] | 2.43
* VNIRCEPAWMCMGF (cysteine pairing not given here; also: fused to phage pIII, linker not given here, Clonal phage of the Peptide-180 library; not shown: pIII filament protein of the display bacteriophage) [Phage-2850] | 2.46
